Biological target: Human-Fc-tagged SARS-CoV2 S1 recombinant protein (Sino Biologicals) (SARS-CoV-2, UniProt P0DTC2 16-685)
Quick reference: IC50 of the listed items.

binder	observed-result
P043.A.00109.B12 (antibody, V domains shown, also called 468; protein sample ID 468) VH: QSLEESGGGLVKPEGSLTLTCKASGFDLNTYYYMCWVRQAPGKGLEWIACIATSDSGHTAYASWARGRFTISKTSSTTVTLQMTGLTAADTATYFCARGGRSVGDGVDLWGPGTLVTVSS VL: DIVMTQTPASVEAAVGGTVTIKCQASQSISSWLAWYQQKPGQPPKLLIYDASDLASGVPSRFKGSGSGTEFTLTISDLESADAATYYCQSYLYVESGSHGFGFGGGTEVVVR	0.0181 µg/mL

Turning now to a further binder:
Query: For the binder P043.A.00032.C04 (antibody, V domains shown, also called 452; protein sample ID 452) VH: QSLEESGGRLVTPGTPLTLTCTASGFSLSSYWMSWVRQAPGKGLEWIGIIYVSGSTYYASWAKGRFTISKTSTTVDLKMTSLTTEDTATYFCARVDYSTGWPLFNIWGPGTLVTVSL VL: AQVLTQTASPVSAAVGGTVTINCQSSQSVYDNNWLGWYQQKPGQPPKLLIYGASILASGVPSRFKGSGSGTQFTLTISDLESDDAATYYCQGGCSGNTFVFGGGTEVVVK , what IC50 is on record?
Result: 0.0147 µg/mL
